- Procedure Details: Solubility according to Japanese Pharmacopoeia general notices, analyzed by HPLC
- Format: physicochemical
- Measurement Context: thermodynamic from solid, treated according to Japanese Pharmacopoeia
Property: solubility (µg/mL)
Hi! Could you send only the number? It should be in µg/mL, unit omitted.

Request: For the compound shown here, CCOC(=O)C1=CCCCC1S(=O)(=O)Nc1ccc(F)cc1Cl (stereo not shown) [Conventional compound] , give the reported solubility.
Response: 10
